# Test system: MS2 coat protein
# method.description: apparent KD of MS2 coat protein; higher = weaker reporter binding
# condition.parameters: Eterna round: R107; input ligand: arginine 13.2 mM
measured.property: apparent KD of MS2 coat protein (nM)

1. AGCAUCUAGUCGGCCGCCACUCUUAUUACAUGAGGAUCACCCAUGUUUAAUUCAUGGUUAUAUUUGAGGACCGGGACAUUUGCAU [JR_ExcTryptoB_Sub007] ... 39.7
2. ACUCGGCAUCAUGAUACCAGAGAGCCCGAGAUGCCUUAACACAUGAGGAUCACCCAUGUACUCCCUUGGCAGCAUCAUGCACUAU [theeternabot_exclusion_MS2_Theo_B_31] ... 16.6
3. GUAUUUAUAUGAAGGAGCGUCGAAAAUGGGUAAACAUGAGGAUCACCCAUGUAAAGGGAACGACAGGUAGGUCGCAUAUGGAUAC [AstromonsSSArgB#25] ... 111
4. UGUAUGUGAUCUGAUACCAGUCCAACUGGUAAAGCACGAGGAUCACCCGUGUAAAAUUGGGACCCUUGGCAGCAGAUCGCAUACU ... 96.8
5. UAAUAAGUACCGGUUCUCAGAUCCUCAUGUCGAGGACCGGUACGGCCGCCACUCGAAACAUGAGGAUCACCCAUGUAAUAAUAAU [#07 Exclusion Tryptophan A] ... 23.5
6. AUUGUGAACCUGAUCGUAUAAUGUAGCGAUACCAGUAUAAUACAUUACCCUUGGCAGCGCGACACAUGAGGAUCACCCAUGUAAG [theeternabot_exclusion_MS2_Theo_A_10] ... 19.6
